Consider the following compounds and their measured molar heat capacity at constant pressure readings.
- assayExplanation: molar heat capacity at constant pressure
- testContext: 363.15 K; 101.33 kPa; Liquid; Large sample (1 g) DSC
± gives the expanded uncertainty stated by the source.
measuredProperty: molar heat capacity at constant pressure

> print(dat)
                                  compound        endpointvalue
1                              CCCCCCCCCBr  337.72 ± 14 J/K/mol
2                                CCCCCCCBr  273.29 ± 12 J/K/mol
3                                 CCCCCCBr  240.72 ± 10 J/K/mol
4  CCCCCCCCCCCCCCBr [1-tetradecyl bromide]  492.93 ± 21 J/K/mol
5                            CCCCCCCCCCCBr  405.61 ± 17 J/K/mol
6                             CCCCCCCCCCBr  366.82 ± 16 J/K/mol
7                           CCCCCCCCCCCCBr  439.44 ± 19 J/K/mol
8                               CCCCCCCCBr  305.33 ± 13 J/K/mol

---

Examples of molecules with documented molar heat capacity at constant pressure follow.
- assayExplanation: molar heat capacity at constant pressure
- testContext: 423.15 K; 101.33 kPa; Liquid; Large sample (1 g) DSC
measuredProperty: molar heat capacity at constant pressure (J/K/mol)

> print(dat)
                                  molecule                          measuredproperty  endpointvalue
1  CCCCCCCCCCCCCCBr [1-tetradecyl bromide]  molar heat capacity at constant pressure          531.8
2                             CCCCCCCCCCBr  molar heat capacity at constant pressure         396.77
3                           CCCCCCCCCCCCBr  molar heat capacity at constant pressure          476.5
4                              CCCCCCCCCBr  molar heat capacity at constant pressure         364.88
5                                CCCCCCCBr  molar heat capacity at constant pressure         295.35
6                                 CCCCCCBr  molar heat capacity at constant pressure         260.17
7                               CCCCCCCCBr  molar heat capacity at constant pressure         335.96
8                            CCCCCCCCCCCBr  molar heat capacity at constant pressure          435.5

---

- assayExplanation: molar heat capacity at constant pressure
- testContext: 398.15 K; 101.33 kPa; Liquid; Large sample (1 g) DSC
Classification field: Fulfilled = molar heat capacity at constant pressure at or over 400 J/K/mol; Not fulfilled = molar heat capacity at constant pressure under 400 J/K/mol.

> print(dat)
                                  compound  assignedclass
1                             CCCCCCCCCCBr  Not fulfilled
2                           CCCCCCCCCCCCBr      Fulfilled
3                                CCCCCCCBr  Not fulfilled
4                                 CCCCCCBr  Not fulfilled
5  CCCCCCCCCCCCCCBr [1-tetradecyl bromide]      Fulfilled
6                            CCCCCCCCCCCBr      Fulfilled
7                              CCCCCCCCCBr  Not fulfilled
8                               CCCCCCCCBr  Not fulfilled
